Assayed System: RXRγ (Homo sapiens, UniProt P48443)
Construct: pFA-CMV-hRXRγ-LBD
Sequence (P48443 231-459 limits assumed): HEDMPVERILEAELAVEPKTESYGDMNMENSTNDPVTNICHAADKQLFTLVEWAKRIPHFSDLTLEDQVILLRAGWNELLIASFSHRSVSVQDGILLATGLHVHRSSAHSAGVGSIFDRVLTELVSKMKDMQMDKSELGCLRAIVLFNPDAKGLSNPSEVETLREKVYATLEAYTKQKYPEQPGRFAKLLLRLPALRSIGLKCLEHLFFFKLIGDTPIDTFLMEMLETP
Experimental Protocol: Gal4-hybrid reporter gene assay, RXRγ
Test Context: Gal4-hybrid reporter gene assay; mean±S.E.M., n≥3
Overview of recorded pEC50 for various molecules
Worth noting: pEC50 values are minus log10 of concentrations stated in mol/L.

                                   compound  reported_result
0  CC1=C2[C@H](/C=C(\C)C(=O)O)CC[C@@H](C)[C@H]2CC1             4.37

Q: Consider the molecule shown here: Cc1c2c(n(-c3ccc(CC(=O)O)cc3)c1C)CCC(F)(F)C2 What is its recorded pEC50?
A: 5.47

Q: Consider the molecule shown here: Cc1c(C)n(-c2ccc(CC(=O)O)cc2)c2ccc(F)cc12 What is its recorded pEC50?
A: 5.77

Reference for the values: paper PMC7618597
